molecular target: human Matrix Metalloproteinase-7 (MMP7), MMP7 (gene 4316) (UniProt P09237); experiment: NVS_ENZ_hMMP7: NovaScreen (NVS) Enzymatic Assay for human Matrix Metalloproteinase-7 (MMP7) (AID 2283183)
Sequence (P09237 whole entry, looked up): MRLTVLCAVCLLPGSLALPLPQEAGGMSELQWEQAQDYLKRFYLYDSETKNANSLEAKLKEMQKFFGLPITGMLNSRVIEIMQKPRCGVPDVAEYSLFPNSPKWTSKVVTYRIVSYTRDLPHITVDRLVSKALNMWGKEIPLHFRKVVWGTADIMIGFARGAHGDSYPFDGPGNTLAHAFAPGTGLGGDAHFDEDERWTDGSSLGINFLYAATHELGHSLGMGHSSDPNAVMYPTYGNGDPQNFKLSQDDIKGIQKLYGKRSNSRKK
Results filed as inconclusive are left out. Activity calls are given as the source filed them. Rule for the calls: active = hit-call score of the fitted dose curve at least 0.9, where 1 is the maximum; inconclusive = response in the unintended direction; inactive = score below 0.9.
QUANTITY_NAME: AC50

Previously resolved entries follow.
The molecule listed as CC(C)c1cccc(C(C)C)c1N1C(=O)c2ccc(O)cc2C1=O shows AC50 equal to inactive

The molecule listed as C=CC(=C)CCC=C(C)C shows AC50 equal to 6.56 µM (active)

The molecule listed as CC[C@H](C)C(=O)O[C@H]1C[C@@H](C)C=C2C=C[C@H](C)[C@H](CC[C@@H]3C[C@@H](O)CC(=O)O3)[C@H]21 shows AC50 equal to inactive

The molecule listed as CC(C)CCO shows AC50 equal to inactive

The molecule listed as CCCCCCc1ccc(O)cc1O shows AC50 equal to inactive

The molecule listed as CCOCCOCCOCCO shows AC50 equal to 28.2 µM (active)

Shifting focus to the molecule that follows.
The molecule listed as O=C(O)c1cccc(Oc2ccccc2)c1 shows AC50 equal to inactive
